// reported Ca ion level-increasing activity (FLIPR) per item
biological target: human OT7T175 (metastin receptor) (human, UniProt Q969F8 1-398); assay: cell-based or functional assay
Sequence (Q969F8 whole entry L364H): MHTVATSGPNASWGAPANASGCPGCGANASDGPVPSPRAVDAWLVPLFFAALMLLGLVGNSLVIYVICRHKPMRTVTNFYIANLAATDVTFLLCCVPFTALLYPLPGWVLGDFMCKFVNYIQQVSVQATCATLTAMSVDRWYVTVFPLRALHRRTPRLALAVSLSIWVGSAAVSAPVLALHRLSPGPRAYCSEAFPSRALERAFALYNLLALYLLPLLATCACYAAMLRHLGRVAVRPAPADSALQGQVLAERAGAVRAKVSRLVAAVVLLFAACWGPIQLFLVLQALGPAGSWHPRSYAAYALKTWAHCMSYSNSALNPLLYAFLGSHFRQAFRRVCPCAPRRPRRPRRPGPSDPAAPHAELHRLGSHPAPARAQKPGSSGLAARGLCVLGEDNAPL
Non-standard residues stand in square brackets, D forms with d. No end group written: not given here. 2Nal = N[C@@H](Cc1ccc2ccccc2c1)C(=O)O; Arg(Me) = CNC(=N)NCCC[C@H](N)C(=O)O; azaGly = NNC(=O)O

[
  {
    "binder": "[dY]TNSFGL[Arg(Me)]F-NH2 (N-terminus assumed; SMILES CNC(=N)NCCC[C@H](NC(=O)[C@H](CC(C)C)NC(=O)CNC(=O)[C@H](Cc1ccccc1)NC(=O)[C@H](CO)NC(=O)[C@H](CC(N)=O)NC(=O)[C@@H](NC(=O)[C@H](N)Cc1ccc(O)cc1)[C@@H](C)O)C(=O)N[C@@H](Cc1ccccc1)C(N)=O, also called Compound No. 227) [des(1)-[D-Tyr2,Thr3,Arg(Me)9]MS10]",
    "Ca ion level-increasing activity (FLIPR)": "1 x Metastin (1-54)"
  },
  {
    "binder": "[dY][2Nal]NSF[azaGly]L[Arg(Me)]F-NH2 (also called Compound No. 255) [des(1)-[D-Tyr2,Nal(2)3,AzaGly7,Arg(Me)9]MS10]",
    "Ca ion level-increasing activity (FLIPR)": "1 x Metastin (1-54)"
  },
  {
    "binder": "[dY]NTNSFGL[Arg(Me)]F-NH2 (N-terminus assumed; SMILES CNC(=N)NCCC[C@H](NC(=O)[C@H](CC(C)C)NC(=O)CNC(=O)[C@H](Cc1ccccc1)NC(=O)[C@H](CO)NC(=O)[C@H](CC(N)=O)NC(=O)[C@@H](NC(=O)[C@H](CC(N)=O)NC(=O)[C@H](N)Cc1ccc(O)cc1)[C@@H](C)O)C(=O)N[C@@H](Cc1ccccc1)C(N)=O, also called Compound No. 205) [[D-Tyr1,Thr3,Arg(Me)9]MS10]",
    "Ca ion level-increasing activity (FLIPR)": "10 x Metastin (1-54)"
  }
]
